Value source: ChEMBL document CHEMBL1201862

Test system: A549
Test: NCI tumour cell line growth inhibition, 48 h
Calls of active or inactive are those of the source. No stated cut-off is given here; in the data, active = GI50 up to about 1.1 µM and inactive = higher.
Choose the fitting class; nothing outside active, inactive is accepted.

// below: answered molecules
Molecule | Label Class
CN1C(NN)=NS(=O)(=O)c2ccccc21 | inactive
Cc1nc(O)c(Cc2ccccc2O)c(-c2ccccc2)n1 | inactive
CC(=O)ON(C(C)=O)c1ccc(-c2nc3ccccc3s2)cc1 | inactive
Nc1cc(N)c(/N=N/c2cccc3c(S(=O)(=O)O)cccc23)cc1/N=N/c1cc([N+](=O)[O-])ccc1O | inactive
COC(=O)CC1C(C)(C)C(=O)C2CC3=C4CC(=O)OC(c5ccoc5)C4(C)CCC3C1(C)C2=O (stereo not given) | inactive

Problem: Record lookup: outcome of this test for O=C(CSC1=NCCN1)Nc1ccccc1 ?
Solution: inactive

Problem: Next up: CNS(=O)(=O)NNS(=O)(=O)c1ccc(F)cc1
Solution: inactive

Problem: Next up: Cc1c(/N=N/c2ccc(Cl)cc2)c(-c2ccccc2)n(C2OC(CO)C(O)C(O)C2O)c(=S)c1C#N (stereo not given)
Solution: inactive

Problem: Next up: C#CCCCC(=O)N(C(=O)C[S+]([O-])CC)c1ccccc1 (stereo not given)
Solution: inactive

Problem: Next up: CCC(=O)OC[n+]1ccc2c(C)c3[nH]c4ccc(OC)cc4c3c(C)c2c1
Solution: active
